Target: human recombinant GST-PAK1-KD protein (Homo sapiens, UniProt Q13153)
Construct: residues #249-545 of human PAK1, UniProtKP/Swiss Q13153; His6 (N); made in house; host or cells: Sf9 insect cells, pAcGP67 baculovirus expression vector
Sequence (Q13153 249-545): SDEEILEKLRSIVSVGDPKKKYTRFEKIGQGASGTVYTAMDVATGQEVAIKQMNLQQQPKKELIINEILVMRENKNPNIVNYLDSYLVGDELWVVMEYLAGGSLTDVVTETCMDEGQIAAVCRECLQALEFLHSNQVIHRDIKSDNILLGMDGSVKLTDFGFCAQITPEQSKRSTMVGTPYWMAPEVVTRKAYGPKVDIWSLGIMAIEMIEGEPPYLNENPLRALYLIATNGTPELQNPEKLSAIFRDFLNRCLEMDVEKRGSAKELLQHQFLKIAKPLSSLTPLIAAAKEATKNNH
Experiment: GST-PAK1-KD (kinase domain) biochemical assay, microfluidic mobility shift
Details: Table I, PAK1 Ki class; read-out: Ki
parameter: Ki

// worked examples, Ki included
>  <compound>
Fc1ccc(CNc2nccc(Nc3cc(C4CC4)[nH]n3)n2)c2cc[nH]c12 [I-47]

>  <measured value>
250 to 1000 nM

$$$$
>  <compound>
F[C@@H]1C[C@@H]1c1cc(Nc2ccnc(NCc3ccc4[nH]cnc4c3Cl)n2)n[nH]1 [I-77]

>  <measured value>
< 50 nM

$$$$
>  <compound>
Cc1cnc(NCc2ccc3[nH]cnc3c2)nc1Nc1cc(C2CC2)[nH]n1 [I-32]

>  <measured value>
250 to 1000 nM

$$$$
>  <compound>
Clc1c(CNc2nccc(Nc3cc(C4CCCO4)[nH]n3)n2)ccc2[nH]cnc12 (centres unmarked) [I-109]

>  <measured value>
< 50 nM

$$$$
>  <compound>
Clc1cc2[nH]cnc2cc1CNc1nccc(Nc2cc(C3CC3)[nH]n2)n1 [I-94]

>  <measured value>
50 to 250 nM

$$$$
>  <compound>
F[C@H]1C[C@H]1c1cc(Nc2ccnc(NCc3ccc4[nH]cnc4c3Cl)n2)n[nH]1 [I-76]

>  <measured value>
< 50 nM

$$$$
>  <compound>
CN(Cc1ccc2[nH]cnc2c1)c1nccc(Nc2cc(C3CC3)[nH]n2)n1 [I-12]

>  <measured value>
< 50 nM

$$$$
>  <compound>
Clc1cc2[nH]ccc2cc1CNc1nccc(Nc2cc(C3CC3)[nH]n2)n1 [I-93]

>  <measured value>
50 to 250 nM

$$$$
>  <compound>
Cc1c(CN(C)c2nccc(Nc3cc(C4CC4)[nH]n3)n2)ccc2[nH]cnc12 [I-95]

>  <measured value>
< 50 nM

$$$$
>  <compound>
C[C@H](Nc1nccc(Nc2cc([C@H]3CC3(F)F)[nH]n2)n1)c1ccc2[nH]cnc2c1 [I-62]

>  <measured value>
< 50 nM

$$$$

Q: // fetch Ki given entry Cc1cc(Nc2ccnc(N[C@@H](C)c3ccc4[nH]cnc4c3)n2)n[nH]1 [I-121]
Ans: 250 to 1000 nM

Q: // fetch Ki given entry C[C@H](Nc1nccc(Nc2cc([C@@H]3C[C@H]3F)[nH]n2)n1)c1ccc2[nH]cnc2c1 [I-69]
Ans: < 50 nM

Q: // fetch Ki given entry C[C@H](Nc1nccc(Nc2cc([C@H]3C[C@@H]3F)[nH]n2)n1)c1ccc2[nH]cnc2c1 [I-70]
Ans: < 50 nM

Q: // fetch Ki given entry Cc1cc(Nc2cc(C3CC3)[nH]n2)nc(NCc2ccc3[nH]cnc3c2)n1 [I-10]
Ans: < 50 nM
